Just for reference, patent US5731432A is where these values come from.

Biological target: adenosine deaminase (ADA) from calf intestinal mucosa (Bos taurus, UniProt P56658)
Construct: adenosine deaminase (ADA) from calf intestinal mucosa; from tissue; host or cells: calf intestinal mucosa
Sequence (P56658 whole entry): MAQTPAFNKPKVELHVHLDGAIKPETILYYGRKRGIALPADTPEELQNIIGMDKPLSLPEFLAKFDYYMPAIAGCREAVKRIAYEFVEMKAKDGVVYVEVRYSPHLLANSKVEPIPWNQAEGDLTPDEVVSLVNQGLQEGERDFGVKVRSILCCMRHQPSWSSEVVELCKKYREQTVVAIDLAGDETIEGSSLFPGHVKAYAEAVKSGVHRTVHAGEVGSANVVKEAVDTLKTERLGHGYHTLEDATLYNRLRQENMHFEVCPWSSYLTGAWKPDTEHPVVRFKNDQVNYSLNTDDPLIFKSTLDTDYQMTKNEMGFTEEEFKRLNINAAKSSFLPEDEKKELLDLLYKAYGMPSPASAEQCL
Experiment: Adenosine Deaminase Assay (Example B)
Assay type: biochemical
Details: calf intestinal mucosa ADA, pH 7.0; read-out: ADA Ki
Listed next: entries and their corresponding Ki.
QUANTITY: Ki (µM)

{"MOLECULE": "CC1(C)[C@H]2CC[C@H](Cn3cnc4c3N=CNCC4O)[C@@H]1C2 (some centres unmarked)", "STUDY SYSTEM": "adenosine deaminase (ADA) from calf intestinal mucosa (Bos taurus, UniProt P56658)", "MEASUREMENT UNIT": "µM", "LIMIT SIGN": ">", "DATA VALUE": 160}
{"MOLECULE": "OC1CNC=Nc2c1ncn2C1CCCCCC1 (centres unmarked)", "STUDY SYSTEM": "adenosine deaminase (ADA) from calf intestinal mucosa (Bos taurus, UniProt P56658)", "MEASUREMENT UNIT": "µM", "LIMIT SIGN": "=", "DATA VALUE": 7.9}
{"MOLECULE": "O=C(O)c1cc(CCn2cnc3c2N=CNCC3O)cs1 (centres unmarked)", "STUDY SYSTEM": "adenosine deaminase (ADA) from calf intestinal mucosa (Bos taurus, UniProt P56658)", "MEASUREMENT UNIT": "µM", "LIMIT SIGN": ">", "DATA VALUE": 6}
{"MOLECULE": "Cc1ccccc1CCCn1cnc2c1N=CNCC2O (centres unmarked)", "STUDY SYSTEM": "adenosine deaminase (ADA) from calf intestinal mucosa (Bos taurus, UniProt P56658)", "MEASUREMENT UNIT": "µM", "LIMIT SIGN": "=", "DATA VALUE": 0.042}
{"MOLECULE": "CCCCCCCn1cnc2c1N=CNCC2(C)O (centres unmarked)", "STUDY SYSTEM": "adenosine deaminase (ADA) from calf intestinal mucosa (Bos taurus, UniProt P56658)", "MEASUREMENT UNIT": "µM", "LIMIT SIGN": "=", "DATA VALUE": 12}
